Attribution: PubChem BioAssay (NCATS)

Entries and their Potency values follow.
assay: qHTS for differential inhibitors of proliferation of Plasmodium falciparum line W2 (AID 1883); settings: Plasmodium falciparum W2 proliferation inhibition; series mostly up to 28.7 µM;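 further: potency means the concentration at half of the fitted maximal effect; parasites grown with compound for 72 h before lysis and staining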
Results filed as inconclusive are left out. Active and inactive are the calls of the source. The call rests on the fitted dose curve; in most records, active means well fitted curve in the direction sought with a large enough effect; inconclusive means small, poorly fitted or top-dose-only effect, or another doubt; inactive means no such curve, though single readings can be large or run the other way.

compound: COc1cc2c(cc1O)CCC1C2CC[C@]2(C)[C@@H](O)CC[C@@H]12 (some centres undefined)
Potency: 15.8 µM (active)
//
compound: N#Cc1c(-c2ccccc2)no[n+]1[O-]
Potency: 10 µM (active)
//
compound: CC(=O)O[C@]1(C(C)=O)CC[C@H]2C3C=C(Cl)C4=CC(=O)[C@@H]5C[C@H]5[C@]4(C)C3CC[C@@]21C (some centres undefined)
Potency: 8.91 µM (active)
//
compound: CN1CCN(CC/C=C2/c3ccccc3Sc3ccc(S(=O)(=O)N(C)C)cc32)CC1
Potency: 5.01 µM (active)

----------
test: Cell Viability - SH-SY5Y (AID 544); details: SH-SY5Y neuroblastoma cell viability; series mostly up to 92.2 µM;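 further: cells exposed to compound for 40 hours; nearly all actives have a fitted effect of over 55% in size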
Records with an inconclusive call do not appear. The source made the active and inactive calls. Calls follow the shape of the dose curve; as a rule, active = well fitted cell-killing curve with a large enough effect; inconclusive = small, poorly fitted or top-dose-only effect; inactive = flat fitted curve, though single readings scatter.
Possible outcomes: label 1 = active, label 0 = inactive

compound: O[C@@H]([C@H](O)[C@@H](O)CBr)[C@@H](O)CBr
category-label: label 0
//
compound: Clc1cc(Cl)c(Cl)cc1Cl
category-label: label 0
//
compound: O=NO
category-label: label 0
//
compound: c1ccc2c(c1)[nH]c1ccccc12
category-label: label 0
//
compound: O=C(O)c1ccc(O)cc1O
category-label: label 0
//
compound: NC1=NC(S)C2N=CN=C2N1 (stereo unspecified)
category-label: label 1
//
compound: CCCN(CCC)C(=O)SCC
category-label: label 0
//
compound: COc1c2ccoc2cc2oc(=O)ccc12
category-label: label 0
//
compound: COCC(=O)O
category-label: label 0
//
compound: CN(C)CCCCCCN(C)C
category-label: label 0
//
compound: CCCCOCCO
category-label: label 0
//
compound: Cc1cccc([N+](=O)[O-])c1C
category-label: label 0
//
compound: Clc1cc(Cl)c(Cl)c(Cl)c1Cl
category-label: label 0
//
compound: CN(C)C=O
category-label: label 0
//
compound: O=C(O)c1ccccc1
category-label: label 0
//
compound: CC1(C)CC(N=C=O)CC(C)(CN=C=O)C1 (stereo unspecified)
category-label: label 0
//
compound: c1ccccc1
category-label: label 0
//
compound: Cc1ccccc1C
category-label: label 0
//
compound: Nc1ccc(S(=O)(=O)O)cc1
category-label: label 0
//
compound: CC(C)=CCCC(C)CCO (stereo unspecified)
category-label: label 0
//
compound: O=[N+]([O-])c1cccc(Cl)c1Cl
category-label: label 0
//
compound: O=C(O)CC(C(=O)O)C(CC(=O)O)C(=O)O (stereo unspecified)
category-label: label 0
//
compound: COC(=O)c1ccc(C=O)cc1
category-label: label 0
//
compound: CCO
category-label: label 0
//
compound: C=CC(=C)CCC=C(C)C
category-label: label 0
//
compound: O=S(=O)(O)c1ccccc1
category-label: label 0
//
compound: O=C1c2ccccc2C(=O)C1c1ccc2ccccc2n1
category-label: label 0
//
compound: CCCCCCCCCCCCCC(=O)O
category-label: label 0
//
compound: C/C=C\c1ccc(OC)cc1
category-label: label 0
//
compound: CC12CCC(CC1=O)C2(C)C (stereo unspecified)
category-label: label 0
//
compound: C[C@H](CCC(=O)O)[C@H]1CC[C@H]2[C@@H]3CC[C@@H]4C[C@H](O)CC[C@]4(C)[C@H]3CC[C@]12C
category-label: label 0
//
compound: COC(=O)c1ccc(C)cc1
category-label: label 0
//
compound: C=CCOC(=O)c1ccccc1C(=O)OCC=C
category-label: label 0
//
compound: CCO[Si](CCCN)(OCC)OCC
category-label: label 0
//
compound: Nc1ccc(Cl)cc1Cl
category-label: label 0
//
compound: CCCCCCCCCCCC(=O)O
category-label: label 0

----------
biological target: Rap guanine nucleotide exchange factor 4 (Homo sapiens); test: Confirmatory qHTS for antagonist of cAMP-regulated guanine nucleotide exchange factor 4 (EPAC2) (AID 1645885); conditions: EPAC2 Rap1B-BODIPY-GDP exchange fluorescence, biochemical; series mostly up to 12.7 µM; further: nearly all actives have a fitted effect of over 25% in size
Inconclusive results are not listed. Calls of active or inactive are those of the source. Calls follow the shape of the dose curve; as a rule, active = well fitted inhibition curve with a large enough effect; inconclusive = small, poorly fitted or top-dose-only effect; inactive = no such curve, though single readings can be large or run the other way.
Labels: t for active, f for inactive

molecule: CCOC(=O)c1sc2nc3c(SCC(=O)O)cc(C(=O)c4cc(F)ccc4O)cn3c(=O)c2c1C
target: Rap guanine nucleotide exchange factor 4 (Homo sapiens)
category-label: f
--
molecule: COc1cc(SC)ccc1C(=O)NC1CCCc2ccccc21 (stereo not drawn)
target: Rap guanine nucleotide exchange factor 4 (Homo sapiens)
category-label: t
--
molecule: Cc1cc(C(=O)Nc2ccon2)c(C)o1
target: Rap guanine nucleotide exchange factor 4 (Homo sapiens)
category-label: t
--
molecule: O=c1c2ccccc2c(C=Nc2ccc(O)cc2)c(O)n1-c1nccs1
target: Rap guanine nucleotide exchange factor 4 (Homo sapiens)
category-label: f
--
molecule: CC(C)c1ccc(NC(=O)COC(=O)C2=COCCO2)cc1
target: Rap guanine nucleotide exchange factor 4 (Homo sapiens)
category-label: f
--
molecule: Cc1cc(-c2ccc(/C=N/n3cnnc3)o2)ccc1Cl
target: Rap guanine nucleotide exchange factor 4 (Homo sapiens)
category-label: f
--
molecule: CCCCCC(=O)N1c2ccccc2C(C)(c2ccccc2)CC1(C)C (stereo not drawn)
target: Rap guanine nucleotide exchange factor 4 (Homo sapiens)
category-label: f
--
molecule: COc1ccccc1-n1c(C)c(C(=O)O)c2cc(OC)c3ccccc3c21
target: Rap guanine nucleotide exchange factor 4 (Homo sapiens)
category-label: t
--
molecule: Cc1ccc(-c2nc(-c3cc4cccc(OCc5ccc(F)cc5)c4oc3=O)no2)cc1
target: Rap guanine nucleotide exchange factor 4 (Homo sapiens)
category-label: f
--
molecule: O=C(NC1CCCCC1)C(c1ccc(-c2ccccc2)cc1)n1c(=O)c(-c2ccco2)nc2ccccc21 (stereo not drawn)
target: Rap guanine nucleotide exchange factor 4 (Homo sapiens)
category-label: f
--
molecule: O=C(Cc1ccc(Cl)cc1)Nc1cccc(C(=O)Nc2ccccc2C(=O)O)c1
target: Rap guanine nucleotide exchange factor 4 (Homo sapiens)
category-label: f
--
molecule: N#C/C(=C\c1ccc(Sc2ccc(Cl)cc2)o1)c1nc2ccccc2[nH]1
target: Rap guanine nucleotide exchange factor 4 (Homo sapiens)
category-label: f
--
molecule: O=C(O)CSCC(=O)N(Cc1ccccc1)c1nc(-c2ccccc2)c(-c2ccccc2)s1
target: Rap guanine nucleotide exchange factor 4 (Homo sapiens)
category-label: t
--
molecule: Cc1csc2nc(CNS(=O)(=O)c3ccc4c(c3)CCCC4)cn12
target: Rap guanine nucleotide exchange factor 4 (Homo sapiens)
category-label: f
--
molecule: Cc1nc(-[n+]2nc(-c3ccncc3)nn2-c2ccccc2)sc1C
target: Rap guanine nucleotide exchange factor 4 (Homo sapiens)
category-label: f
--
molecule: O=C(O)CCCC(=O)N1CCN(c2nc(-c3ccccc3Cl)c3cc(Br)ccc3n2)CC1
target: Rap guanine nucleotide exchange factor 4 (Homo sapiens)
category-label: t
--
molecule: COc1ccc(CNc2nc(-c3cccnc3)nc3ccccc23)c(OC)c1
target: Rap guanine nucleotide exchange factor 4 (Homo sapiens)
category-label: f
--
molecule: O=c1cnc2cnc(Oc3ccccc3)nc2n1Cc1cccs1
target: Rap guanine nucleotide exchange factor 4 (Homo sapiens)
category-label: t
--
molecule: COc1ccc(OC)c(Nc2cc3ccccc3c(=O)[nH]2)c1
target: Rap guanine nucleotide exchange factor 4 (Homo sapiens)
category-label: f
--
molecule: CC1CCc2c(sc3nc(SCC(=O)O)n(-c4ccccc4)c(=O)c23)C1 (stereo not drawn)
target: Rap guanine nucleotide exchange factor 4 (Homo sapiens)
category-label: f
--
molecule: COc1cc(/C=C2/SC(=S)N(c3c(C)n(C)n(-c4ccccc4)c3=O)C2=O)ccc1O
target: Rap guanine nucleotide exchange factor 4 (Homo sapiens)
category-label: f
--
molecule: CN1CCc2c(sc(NC(=O)CSc3ccccc3)c2-c2nc3ccccc3s2)C1
target: Rap guanine nucleotide exchange factor 4 (Homo sapiens)
category-label: f
--
molecule: CCO[C@H]1OC(C(=O)NCc2ccccc2)=C[C@@H](c2ccc(C(F)(F)F)cc2)[C@@H]1CCCO
target: Rap guanine nucleotide exchange factor 4 (Homo sapiens)
category-label: f
--
molecule: Cc1csc2c(=O)sc(NC(=O)c3cccs3)nc12
target: Rap guanine nucleotide exchange factor 4 (Homo sapiens)
category-label: f
--
molecule: O=C(CSc1nc2ccccc2o1)N/N=C/c1ccc(O)c(O)c1
target: Rap guanine nucleotide exchange factor 4 (Homo sapiens)
category-label: f
--
molecule: O=C(CSc1nnc(-c2cnccn2)n1Cc1ccco1)c1ccc(Cl)cc1
target: Rap guanine nucleotide exchange factor 4 (Homo sapiens)
category-label: f
--
molecule: CC(C)(C)C1CCc2c(sc3nc(SCC(=O)O)nc(N)c23)C1 (stereo not drawn)
target: Rap guanine nucleotide exchange factor 4 (Homo sapiens)
category-label: f
--
molecule: Oc1ccc(-c2nc(-c3ccc(O)c(O)c3)cs2)cc1
target: Rap guanine nucleotide exchange factor 4 (Homo sapiens)
category-label: f
--
molecule: Cc1cc(C(=O)Cn2ncc(Cl)c(Cl)c2=O)c(C)n1CC(F)(F)F
target: Rap guanine nucleotide exchange factor 4 (Homo sapiens)
category-label: f
--
molecule: COc1cc(CNc2ccc(O)cc2)cc(Br)c1OCc1ccccc1
target: Rap guanine nucleotide exchange factor 4 (Homo sapiens)
category-label: f
--
molecule: COc1ccc(OC)c(/C=C2\SC(=S)N(Cc3cccnc3)C2=O)c1
target: Rap guanine nucleotide exchange factor 4 (Homo sapiens)
category-label: f
--
molecule: CCC(C)(C)c1ccc(OCC(=O)N(C)C)c(C(C)(C)CC)c1
target: Rap guanine nucleotide exchange factor 4 (Homo sapiens)
category-label: t
--
molecule: CC(=O)N1CCc2nc3sc(C(=O)c4ccc(F)cc4)c(N)c3c(C(F)(F)F)c2C1
target: Rap guanine nucleotide exchange factor 4 (Homo sapiens)
category-label: f
--
molecule: O=C(/C=C/c1ccco1)NC(=S)Nc1cccc(-c2nc3ccccc3o2)c1
target: Rap guanine nucleotide exchange factor 4 (Homo sapiens)
category-label: f
--
molecule: CC(C)CCNc1c(-c2cccs2)nc2ccccn12
target: Rap guanine nucleotide exchange factor 4 (Homo sapiens)
category-label: f
--
molecule: Cc1ccc(C(=O)NN2C(=O)/C(=C/c3cn(C)c4ccccc34)SC2=S)cc1
target: Rap guanine nucleotide exchange factor 4 (Homo sapiens)
category-label: f
--
molecule: Cc1ccc(C)c2nc3sc(C(=O)N4CCCc5ccccc54)c(N)c3cc12
target: Rap guanine nucleotide exchange factor 4 (Homo sapiens)
category-label: f
--
molecule: CNc1ccc(/C=C/C(=O)c2ccc(C)cc2)cc1[N+](=O)[O-]
target: Rap guanine nucleotide exchange factor 4 (Homo sapiens)
category-label: f
--
molecule: CCOC(=O)c1nc(C)nc(Sc2n[nH]c(-c3cc(Cl)cc(Cl)c3)n2)c1C
target: Rap guanine nucleotide exchange factor 4 (Homo sapiens)
category-label: f
--
molecule: Cc1cc2nc3c(=O)[nH]c(=O)[nH]c3nc2c([N+](=O)[O-])c1N
target: Rap guanine nucleotide exchange factor 4 (Homo sapiens)
category-label: f
--
molecule: CCCOC(=O)c1c(NC(=O)C2C3C=CC(C3)C2C(=O)O)sc2c1CCC(C)C2 (stereo not drawn)
target: Rap guanine nucleotide exchange factor 4 (Homo sapiens)
category-label: f
--
molecule: O=C(NCCc1ccccc1)c1ccc2c(=O)[nH]c3c(C(=O)NCC4CCCO4)sc(=S)n3c2c1 (stereo not drawn)
target: Rap guanine nucleotide exchange factor 4 (Homo sapiens)
category-label: t
--
molecule: CCOc1ccc(C(=O)N/N=C/c2cc(Cl)ccc2[N+](=O)[O-])cc1
target: Rap guanine nucleotide exchange factor 4 (Homo sapiens)
category-label: f
